Measurement record for 5-hydroxytryptamine receptor 1A (Homo sapiens, UniProt P08908); quantity recorded: AC50.
Measure name: AC50

>>> result("Cc1cc(=O)[nH]c(=S)[nH]1")
"> 30 µM"
>>> result("Cc1ccc(C)c(OCCCC(C)(C)C(=O)O)c1")
"> 30 µM"
>>> result("O=C(O)P(=O)(O)O")
"> 30 µM"
>>> result("CCCCC(CC)CN1CN(CC(CC)CCCC)CC(C)(N)C1 (stereo not drawn)")
"3.44 µM"
>>> result("CC(C)NC(=N)NC(=N)Nc1ccc(Cl)c(Cl)c1")
"3.82 µM"
>>> result("CC[C@H]1OC(=O)[C@H](C)[C@@H](O[C@H]2C[C@@](C)(OC)[C@@H](O)[C@H](C)O2)[C@H](C)[C@@H](O[C@@H]2O[C@H](C)C[C@H](N(C)C)[C@H]2O)[C@](C)(O)C[C@@H](C)[C@@H]2N[C@@H](COCCOC)O[C@H]([C@H]2C)[C@]1(C)O")
"> 30 µM"
>>> result("O=S1(=O)CCN(CN2CCS(=O)(=O)NC2)CN1")
"> 30 µM"
>>> result("Cc1ccc(C(=O)C(C)CN2CCCCC2)cc1 (stereo not drawn)")
"> 30 µM"

###

Measured AC50 accompanies every entry in the list below.
molecular target: Cholecystokinin receptor type A (Homo sapiens, UniProt P32238); further: assay procedure not described here
Sequence (P32238 whole entry): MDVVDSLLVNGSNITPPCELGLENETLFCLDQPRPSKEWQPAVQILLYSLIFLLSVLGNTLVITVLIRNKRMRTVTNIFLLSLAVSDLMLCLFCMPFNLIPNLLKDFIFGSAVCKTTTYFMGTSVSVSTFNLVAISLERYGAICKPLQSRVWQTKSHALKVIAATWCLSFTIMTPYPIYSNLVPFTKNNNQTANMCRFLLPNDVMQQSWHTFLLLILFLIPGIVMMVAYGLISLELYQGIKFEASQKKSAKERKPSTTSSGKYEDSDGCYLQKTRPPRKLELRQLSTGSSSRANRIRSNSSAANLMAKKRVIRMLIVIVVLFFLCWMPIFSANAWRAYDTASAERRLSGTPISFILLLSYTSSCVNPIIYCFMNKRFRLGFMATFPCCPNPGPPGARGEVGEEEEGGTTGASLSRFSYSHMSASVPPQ
Measure name: AC50

>>> result("CC(=O)Nc1ccc(CC(=O)O)cc1")
"> 30 µM"
>>> result("Fc1ccc([C@@H]2CCNC[C@H]2COc2ccc3c(c2)OCO3)cc1")
"> 30 µM"
>>> result("CC(C)[C@H](N)C(=O)OCCOCn1cnc2c(=O)[nH]c(N)nc21")
"> 30 µM"
>>> result("COc1ccc(CN2CCN(C(c3ccc(F)cc3)c3ccc(F)cc3)CC2)c(OC)c1OC")
"> 30 µM"
>>> result("CC(C)NC[C@H](O)COc1ccc(CC(N)=O)cc1")
"> 30 µM"

###

target: 5-hydroxytryptamine receptor 1A (Homo sapiens, UniProt P08908); format: functional, cell-based
Sequence (P08908 whole entry): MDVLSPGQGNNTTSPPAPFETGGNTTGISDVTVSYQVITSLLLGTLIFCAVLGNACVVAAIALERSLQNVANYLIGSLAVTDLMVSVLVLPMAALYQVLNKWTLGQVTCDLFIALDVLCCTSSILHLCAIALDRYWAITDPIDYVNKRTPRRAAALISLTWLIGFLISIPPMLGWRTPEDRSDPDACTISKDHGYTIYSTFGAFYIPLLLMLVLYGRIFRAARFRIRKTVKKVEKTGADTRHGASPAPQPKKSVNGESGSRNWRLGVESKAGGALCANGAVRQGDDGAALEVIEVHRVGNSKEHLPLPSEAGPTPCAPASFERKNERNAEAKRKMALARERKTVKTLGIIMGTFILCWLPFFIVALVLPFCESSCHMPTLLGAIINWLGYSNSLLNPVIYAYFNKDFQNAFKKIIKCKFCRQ
Measure name: AC50

>>> result("C[C@]12C=CC(=O)C=C1CC[C@@H]1[C@@H]2CC[C@]2(C)OC(=O)CC[C@@H]12 [TESTOLACTONE]")
"> 10 µM"
>>> result("CC(C)(O/N=C(\\C(=O)N[C@@H]1C(=O)N2C(C(=O)[O-])=C(C[n+]3ccccc3)CS[C@H]12)c1csc(N)n1)C(=O)O [CEFTAZIDIME]")
"> 300 µM"
>>> result("CC(=O)[C@H]1CC[C@H]2[C@@H]3C[C@H](C)C4=CC(=O)CC[C@]4(C)[C@H]3[C@@H](O)C[C@]12C [MEDRYSONE]")
"> 10 µM"
>>> result("CCOC(=O)c1ccc(N)cc1 [BENZOCAINE]")
"> 10 µM"
>>> result("COC(=O)[C@H]1[C@H]2C[C@@H]3c4[nH]c5cc(OC)ccc5c4CCN3C[C@H]2C[C@@H](OC(=O)c2cc(OC)c(OC)c(OC)c2)[C@@H]1OC [RESERPINE]")
"> 10 µM"
>>> result("CN(C)C/C=C/C(=O)Nc1cc2c(Nc3ccc(F)c(Cl)c3)ncnc2cc1O[C@H]1CCOC1 [AFATINIB]")
"> 30 µM"
>>> result("CC(C)[C@@H](C)/C=C/[C@@H](C)[C@H]1CC[C@H]2/C(=C/C=C3\\C[C@@H](O)CC[C@@H]3C)CCC[C@]12C [DIHYDROTACHYSTEROL]")
"> 10 µM"
>>> result("CN1CCN=C(c2ccccc2)c2cc(Cl)ccc21 [MEDAZEPAM]")
"> 30 µM"
>>> result("O=C(CCCN1CCC(O)(c2ccc(Br)cc2)CC1)c1ccc(F)cc1 [BROMPERIDOL]")
"1.2 µM"
>>> result("CC(=O)Nc1ccc(CC(=O)O)cc1 [ACTARIT]")
"> 30 µM"
>>> result("Cc1ccccc1-n1c(CF)nc2ccc(N)cc2c1=O [AFLOQUALONE]")
"> 10 µM"
>>> result("OC[C@H]1O[C@@H](n2cnc3c2NC=NC[C@H]3O)C[C@@H]1O [PENTOSTATIN]")
"> 30 µM"
>>> result("CCOC(=O)c1ncn2c1CN(C)C(=O)c1cc(F)ccc1-2 [FLUMAZENIL]")
"> 10 µM"
>>> result("CCOc1cc([C@@H](CS(C)(=O)=O)N2C(=O)c3cccc(NC(C)=O)c3C2=O)ccc1OC")
"> 30 µM"
>>> result("CC(C)(Oc1ccc(CCNC(=O)c2ccc(Cl)cc2)cc1)C(=O)O [BEZAFIBRATE]")
"> 30 µM"
>>> result("CC(CN1c2ccccc2Sc2ccccc21)N(C)C (stereo not given) [PROMETHAZINE]")
"> 10 µM"
>>> result("CC1(C)S[C@@H]2[C@H](NC(=O)C(C(=O)O)c3ccccc3)C(=O)N2[C@H]1C(=O)O (stereo not given in full) [CARBENICILLIN]")
"> 30 µM"
>>> result("CC(C)(C)NCC(O)c1ccccc1Cl (stereo not given) [TULOBUTEROL]")
"> 30 µM"
>>> result("CN[C@@H](C)[C@@H](O)c1ccccc1 [PSEUDOEPHEDRINE]")
"> 10 µM"
>>> result("COc1cc(C(C)=O)ccc1OCCCN1CCC(c2noc3cc(F)ccc23)CC1 [ILOPERIDONE]")
"0.055 µM"
>>> result("C[C@@H]1C[C@H]2[C@@H]3C[C@H](F)C4=CC(=O)C=C[C@]4(C)[C@@]3(F)[C@@H](O)C[C@]2(C)[C@@]1(OC(=O)c1ccco1)C(=O)SCF [FLUTICASONE FUROATE]")
"> 10 µM"
>>> result("CN(Cc1cnc2nc(N)nc(N)c2n1)c1ccc(C(=O)N[C@@H](CCC(=O)O)C(=O)O)cc1 [METHOTREXATE]")
"> 10 µM"
>>> result("CNCCc1ccc(OC(=O)C(C)C)c(OC(=O)C(C)C)c1 [IBOPAMINE]")
"> 30 µM"
>>> result("CC(C)N(CCCCOCC(=O)O)c1cnc(-c2ccccc2)c(-c2ccccc2)n1")
"> 30 µM"
>>> result("Cc1ccnc2c1NC(=O)c1cccnc1N2C1CC1 [NEVIRAPINE]")
"> 10 µM"
>>> result("CCOC(=O)C(C)(C)Oc1ccc(Cl)cc1 [CLOFIBRATE]")
"> 10 µM"
>>> result("CC/C=C\\C/C=C\\C/C=C\\C/C=C\\C/C=C\\CCCC(=O)OCC [ICOSAPENT ETHYL]")
"> 30 µM"
>>> result("COc1ccc(C2C(=O)c3ccccc3C2=O)cc1 [ANISINDIONE]")
"> 10 µM"
>>> result("O=C1OC(OC(=O)c2cccnc2Nc2cccc(C(F)(F)F)c2)c2ccccc21 (stereo not given) [TALNIFLUMATE]")
"> 30 µM"
>>> result("c1ccc(C2(N3CCCCC3)CCCCC2)cc1 [PHENCYCLIDINE]")
"> 30 µM"
>>> result("COc1ccc([C@@H]2CC(=O)c3c(O)cc(O)cc3O2)cc1O [HESPERETIN]")
"> 10 µM"
>>> result("O=C(O)CCNC(=O)c1ccc(/N=N/c2ccc(O)c(C(=O)O)c2)cc1 [BALSALAZIDE]")
"> 30 µM"
>>> result("CCOc1nc2cccc(C(=O)O)c2n1Cc1ccc(-c2ccccc2-c2nnn[nH]2)cc1")
"> 30 µM"
>>> result("C/C=C(/C(=C/C)c1ccc(O)cc1)c1ccc(O)cc1 [DIENESTROL]")
"> 10 µM"
>>> result("O=C(O)Cc1ccccc1Nc1c(Cl)cccc1Cl [DICLOFENAC]")
"> 10 µM"

###

Measurement record for Melanocortin receptor 3 (Homo sapiens); quantity recorded: AC50.
Measure name: AC50

>>> result("CO/N=C(\\C(=O)N[C@@H]1C(=O)N2C(C(=O)O)=CCS[C@H]12)c1csc(N)n1")
"> 30 µM"
>>> result("C[C@@H]1C[C@H]2[C@@H]3CCC4=CC(=O)C=C[C@]4(C)[C@@]3(F)[C@@H](O)C[C@]2(C)[C@@]1(O)C(=O)CO")
"> 30 µM"
>>> result("C[C@]12C=CC(=O)C=C1CC[C@@H]1[C@@H]2CC[C@]2(C)OC(=O)CC[C@@H]12")
"> 10 µM"
>>> result("Oc1cc(O)c(Cl)cn1")
"> 30 µM"
>>> result("CCN1CCCC1CNC(=O)c1cc(S(=O)(=O)CC)ccc1OC (centres undefined) [SULTOPRIDE]")
"> 30 µM"
>>> result("Cn1c(=O)c2c(ncn2CCOC(=O)C(C)(C)Oc2ccc(Cl)cc2)n(C)c1=O [THEOFIBRATE]")
"> 30 µM"
>>> result("O=C(O)CCNC(=O)c1ccc(/N=N/c2ccc(O)c(C(=O)O)c2)cc1 [BALSALAZIDE]")
"> 30 µM"
>>> result("CNC(=C[N+](=O)[O-])NCCSCc1csc(CN(C)C)n1")
"> 10 µM"
>>> result("O=C1Nc2ccc(Cl)cc2C(c2ccccc2Cl)=NC1O (centres undefined)")
"> 30 µM"
